// provenance: paper PMC5889877

What +dP/dt × 1000 (contraction rate) was measured for each of the following?
System: isolated rat hearts
ASSAY NOTES: Langendorff-perfused isolated rat heart: mechanical performance (RPP, HR, ±dP/dt, cardiac efficiency)
CONDITION DESCRIPTION: hearts treated at the IC50

Give measured +dP/dt × 1000 (contraction rate) for every item shown.
1. CC(=O)C=C(C)[O-].Cc1ccnc2c1ccc1c(C)ccnc12.O.O.O=[N+]([O-])[O-].[Cu+2]
2. COc1cccc2c1C(=O)c1c(O)c3c(c(O)c1C2=O)C[C@@](O)(C(=O)CO)C[C@@H]3O[C@H]1C[C@H](N)[C@H](O)[C@H](C)O1 [Doxo, Doxorubicin, reference compound]
3. Cc1ccnc2c1ccc1c(C)ccnc12.NCC(=O)[O-].O.O.O=[N+]([O-])[O-].[Cu+2]
4. CC(=O)C=C(C)[O-].Cc1ccnc(-c2cc(C)ccn2)c1.O.O.O=[N+]([O-])[O-].[Cu+2]

Marked response:
1. 2.4 ± 0.23^∗ mmHg·s^−1
2. 2.1 ± 0.23^∗ mmHg·s^−1
3. 2.0 ± 0.13^∗ mmHg·s^−1
4. 2.4 ± 0.20^∗ mmHg·s^−1
